Tested on: CAKI-1 renal
Test: NCI-60 one-dose screen, 48 h
Conditions: 10 µM unless noted
About 83,000 compounds went through this panel and 20% of them were active in at least one assay; those are over-represented in the sample as a whole. The source made the active and inactive calls. The calls were made as follows: active = growth percent below 10; inactive = the rest.
Labels: 1.0 (active), 0.0 (inactive)

> print(dat)
                                    molecule  targetentity  categorylabel
 1    COc1ccccc1OCC(=O)Nc1sc2c(c1C(N)=O)CCC2  CAKI-1 renal            0.0
 2  O=C1Nc2ccc(Br)cc2C1=N/C=c1\[nH]c(=O)/c(=C/c2ccc(Cl)cc2)s1  CAKI-1 renal            0.0
 3   COc1ccc(OC)c(C(=O)c2oc3ccc(Br)cc3c2N)c1  CAKI-1 renal            1.0
 4            NC(N)=NC(N)=Nc1ccccc1-c1ccccc1  CAKI-1 renal            0.0
 5          Cc1nc2scc(-c3ccccc3)n2c(=O)c1CCO  CAKI-1 renal            0.0
 6  Cc1ccc2c(c1)C(C)Cc1c(N(C)C)ncnc1N2C (stereo unspecified)  CAKI-1 renal            0.0
 7  CC1Cc2c(N(C)C)ncnc2N(C)c2ccc(Cl)cc21 (stereo unspecified)  CAKI-1 renal            0.0
 8  CCN(C(=O)c1cc2ncccc2[nH]1)[C@H]1CCC[C@@H](NCc2cccc(F)c2)C1  CAKI-1 renal            0.0
 9           c1cc(-c2ccc3c(c2)OCO3)n2nccc2n1  CAKI-1 renal            0.0
10  CCC1CCc2nc3sc(C(=O)Nc4ccccc4C)c(N)c3cc2C1 (stereo unspecified)  CAKI-1 renal            0.0
11           CC(=O)Oc1cccc(OC(C)=O)c1OC(C)=O  CAKI-1 renal            0.0

====

Tested on: HCT-15 colon
Assay: NCI-60 one-dose screen, 48 h
Conditions: 10 µM unless noted
This is part of a sample that, as a whole, favours compounds with a hit. Of some 83,000 tested, about 20% had one in any assay. Calls of active or inactive are those of the source. How the source made its calls: active means growth percent below 10; inactive means the rest.
Classes used: active, inactive

> print(dat)
                                    compound  targetentity  categorylabel
 1  COc1cc(OC)c(C(=O)/C=C/c2cccc(C#N)c2)c(OC)c1  HCT-15 colon         active
 2  CC(=O)Nc1ccc2c(c1)/C(=C\C=C/c1ccc([N+](C)(C)C)cc1)c1ccccc1-2  HCT-15 colon       inactive
 3  CC(C)(C)c1cc(-c2nc3ccc(N4CCN(CCO)CC4)cc3[nH]2)cc(C(C)(C)C)c1O  HCT-15 colon         active
 4  CCN1C(=O)N(CC)C2Nn3c(s/c(=C4\C(=O)N(C5CCCC5)c5ccccc54)c3=O)=NC21 (centres undefined)  HCT-15 colon       inactive
 5  COc1ccc(-c2nc3sccn3c2-c2ccnc(NCCCNS(=O)(=O)c3ccc(F)cc3)n2)cc1  HCT-15 colon         active
 6  Cc1ccc(C2=NN(c3ccc(S(N)(=O)=O)cc3)C(c3cn(-c4ccccc4)nc3-c3ccccc3)C2)cc1 (centres undefined)  HCT-15 colon       inactive
 7  CCC1CCc2nc3sc(C(=O)Nc4cccc(C)c4)c(N)c3cc2C1 (centres undefined)  HCT-15 colon       inactive
 8  COc1ccc(Cn2c(SC)nc(=O)n(Cc3ccc(Cl)cc3)c2=O)cc1  HCT-15 colon       inactive
 9  COc1cccc2nc(Nc3ccc(NC(=O)c4ccc5ncccc5c4)cc3)ccc12  HCT-15 colon       inactive
10                   Cc1cc(C(=O)O)c(N)c(C)n1  HCT-15 colon       inactive
11  CCN1C(=S)N(CC)C2Nn3c(s/c(=C4\C(=O)N(C)c5ccccc54)c3=O)=NC21 (centres undefined)  HCT-15 colon       inactive
12     Nc1nc(-c2cc3ccccc3o2)cc(=O)c(=O)[nH]1  HCT-15 colon       inactive
13  CCCCCCCCCCCCCCCCCCOc1cccc(CCOP(=O)(O)OCC[N+](C)(C)C)c1  HCT-15 colon       inactive
14  COc1cc2nc(N3CCC[C@@H](NC4=CC(=O)c5ccccc5C4=O)C3)nc(N)c2cc1OC  HCT-15 colon         active
15  Cc1cc2c(c(=O)o1)C(c1ccc(OC(=O)N3CCOCC3)cc1)C(C#N)=C(N)O2 (centres undefined)  HCT-15 colon       inactive
16  Cc1ccc(Oc2nc3ccccc3cc2-c2nnc(Cn3c(COc4ccccc4)nc4ccccc43)o2)cc1  HCT-15 colon       inactive
17  O=S(=O)(NCCCNc1cc(-c2cn(-c3ccccc3)nc2-c2cccc(O)c2)ccn1)c1cccc2ccccc12  HCT-15 colon         active
18                              CCNCc1ccncc1  HCT-15 colon       inactive
19  COc1cc(C2C=C(C)N=C3SC=C(C)N32)cc(OC)c1OC (centres undefined)  HCT-15 colon         active
20  Cc1oc2nc[nH]c(=O)c2c1C(=O)/C=C/c1ccc(Cl)cc1  HCT-15 colon       inactive
21  N#CC1=C(N)n2nc(-c3ccncc3)nc2NC1c1cccc2ccccc12 (centres undefined)  HCT-15 colon       inactive
22  CC(C)C[C@H](NC(=O)[C@H](Cc1ccccc1)n1ccc(N2CCCCC2)cc1=O)B(O)O  HCT-15 colon       inactive
23  COc1ccc(C(=O)/C=C/c2ccc(/C=C/c3cc(OC)c(OC)c(OC)c3)cc2)cc1  HCT-15 colon       inactive
24  Cc1cc(C)c(S(=O)(=O)N2CCN(c3cc4c(cc3F)c(=O)c(C(=O)O)cn4C3CC3)CC2)c(C)c1  HCT-15 colon       inactive
25  O=C(c1c[nH]c2ccccc12)C(Sc1nc2ccccc2c(=O)[nH]1)c1ccccc1 (centres undefined)  HCT-15 colon       inactive
26  CC(Br)C(Br)c1cc2c(cc1Br)OCO2 (centres undefined)  HCT-15 colon       inactive
27  C=C1C(=O)O[C@H]2[C@H]1CC/C(Cn1cc(-c3ccc(N)cc3)nn1)=C\CC[C@@]1(C)O[C@@H]21  HCT-15 colon         active
28                    COc1cc(C(=O)CCCl)ccc1O  HCT-15 colon       inactive
29  CCC(=O)Oc1cc(/C=C/C(=O)O[C@H]2C[C@H]3CN4CCc5c([nH]c6cc(OC)ccc56)[C@@H]4C[C@@H]3[C@@H](C(=O)OC)[C@@H]2OC)ccc1OC  HCT-15 colon       inactive
30  COC(=O)c1ccc2nc(-c3cc4ccccc4n3C)n(CCCCOc3cc4c(cc3OC)C(=O)N3CCC[C@H]3C=N4)c2c1  HCT-15 colon         active
31  O=C(O)c1cn(C2CC2)c2cc(N3CCN(S(=O)(=O)c4ccc(Cl)c(Cl)c4)CC3)c(F)cc2c1=O  HCT-15 colon         active
32  Cc1sc2nc(CSc3nnc(-c4ccco4)o3)[nH]c(=O)c2c1C  HCT-15 colon       inactive
33  Nc1c(C(=O)Nc2cccc(C(F)(F)F)c2)sc2nc3c(cc12)CCCCCC3  HCT-15 colon       inactive
34  Cc1c(C(=O)NCc2ccccc2)[n+](=O)c2cc(F)ccc2n1[O-]  HCT-15 colon       inactive
35  CCOC(=O)C1=C(CSC(=S)N(C2CCCCC2)C2CCCCC2)N(C)C(=O)NC1c1ccccc1 (centres undefined)  HCT-15 colon       inactive
36  O=C(Cc1n[nH]c(=O)c2ccccc12)OCc1c(Cl)cccc1Cl  HCT-15 colon       inactive
37  CCn1cc(C(=O)O)c(=O)c2cc(F)c(N3CCN(S(=O)(=O)c4cccc5ccccc45)CC3)cc21  HCT-15 colon       inactive
38  O=S(=O)(NCCCNc1nccc(-c2c(-c3ccccc3)nc3sccn23)n1)c1ccc(F)cc1  HCT-15 colon       inactive
39                 CCOC(=O)/C=C\C(=O)NC(N)=O  HCT-15 colon       inactive
